Give pIC50 for every item shown.
Molecular target: PDK1 (Homo sapiens (Human))
Sequence (O15530 51-359): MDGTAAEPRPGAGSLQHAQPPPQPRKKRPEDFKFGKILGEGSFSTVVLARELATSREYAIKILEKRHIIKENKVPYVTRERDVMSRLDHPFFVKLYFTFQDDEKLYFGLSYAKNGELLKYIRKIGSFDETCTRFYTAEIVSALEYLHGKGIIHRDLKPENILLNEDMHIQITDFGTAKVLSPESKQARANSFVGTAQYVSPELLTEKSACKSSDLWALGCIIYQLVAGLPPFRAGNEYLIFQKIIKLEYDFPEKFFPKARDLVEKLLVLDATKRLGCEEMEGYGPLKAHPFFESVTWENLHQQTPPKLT
Assay: PDK1 kinase assay (coupled PDK1/AKT/FAM-crosstide assay, IMAP fluorescence polarization)
Type: biochemical
Conditions: inhibition of phospo-PDK1 in vitro
pIC50: −log10 of the molar value. Structures can show the parent of a compound that is named as a salt.

Some molecules with recorded pIC50:
molecule: C[C@H](NC(=O)c1cccnc1NCc1ccc(-c2ccc3ncnc(N)c3c2)s1)c1cc(F)c(F)c(F)c1 [Example 3.63, (TFA salt)]
result-type: pIC50
endpoint-value: > 7.00

molecule: Nc1ncnc2ccc(-c3ccc(CNc4nccnc4C(=O)NCc4cc(F)c(F)c(F)c4)s3)cc12 [Example 3.71, (TFA salt)]
result-type: pIC50
endpoint-value: > 7.00

molecule: Nc1ncnc2ccc(-c3ccc(CNc4ncc(NS(=O)(=O)Cc5ccccc5)cc4C(=O)NCc4ccc(F)c(F)c4)s3)cc12
result-type: pIC50
endpoint-value: 5.30 to 6.00

Please state pIC50 for every molecule in the list that follows.
1. O=C(NCc1ccc(F)c(F)c1)c1cccnc1NCc1csc(-c2c[nH]c3ncncc23)n1
2. C[C@H](NC(=O)c1cc(C(F)(F)F)cnc1NCc1ccc(-c2ccc3ncnc(N)c3c2)s1)c1ccc(F)cc1
3. Nc1ncnc2ccc(-c3ccc(CNc4ncccc4C(=O)NCc4ccc(Cl)cc4)s3)cc12 [Example 3.22, (TFA salt)]
4. CNC(=O)c1ncnc2ccc(-c3ccc(CNc4ncccc4C(=O)N[C@@H](C)c4ccc(F)c(F)c4)s3)cc12

6.00 to 7.00
> 7.00
6.00 to 7.00
< 5.30
